B1: NELF-E aptamer (parent)
chain: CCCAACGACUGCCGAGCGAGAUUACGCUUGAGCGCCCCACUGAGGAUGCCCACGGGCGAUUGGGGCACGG

Variants of: B1
protocol details: HiTS-RAP
test parameters: with NELF-E (Drosophila)
pKd: −log10 of the molar value.
As shown below, each of these variants has a reported pKd value.

macromolecule sequence	pKd
CCCAACGGCUGCCGAGCGAGAUUACGCUUGAGCGCCCCACUGAGGAUGCCCACGUGCGAUUGGGGCACGG [A8G G55U]	8.15
CCCAACGACUGCCGAGCGAGAUUACGCUUGAGCGCCCCACGGAGGAUGCCCACGGGCGAUUGGCGCACGG [U41G G64C]	8.15
CCCAACGACUGCCGAGCGGGAUUUCGCUUGAGCGCCCCACUGAGGAUGCCCACGGGCGAUUGGGGCACGG [A19G A24U]	8.14
CCCAAUUACUGCCGAGCGAGAUUACGCUUGAGCGCCCCACUGAGGAUGCCCACGGGCGAUUGGGGCACGG [C6U G7U]	8.17
CCCAACUACUGCCGAGCGAUAUUACGCUUGAGCGCCCCACUGAGGAUGCCCACGGGCGAUUGGGGCACGG [G7U G20U]	8.15
CCCAACGACUGCCGAGCGAGAGUACGCUUGAGCGCCCCACUGAGGAUGCCCACGAGCGAUUGGGGCACGG [U22G G55A]	8.08
CCCAGCGACUGCCGAGCGAGAUUACGCUUGAGCGCCCCACUGAGGAUGCCUACGGGCGAUUGGGGCACGG [A5G C51U]	8.13
CCCAACGACUGCCGAGCGAGAUUACGCUUGGGCGCCCCACUGAGGAUGCCCACGGGCGAUUGGGACACGG [A31G G65A]	8.01
CCCAACUACUGCCGAGCGUGAUUACGCUUGAGCGCCCCACUGAGGAUGCCCACGGGCGAUUGGGGCACGG [G7U A19U]	8.20
CCCAACGACGGCCGAGCGAGAUUACGCUUGAGCGCCCCACUGAGGAUGCCCACGGGCGAUUGGGCCACGG [U10G G65C]	7.77
CCCAACGACUGCCGAACGAGAUUACGCUUGAGCGCCCCACGGAGGAUGCCCACGGGCGAUUGGGGCACGG [G16A U41G]	8.18
CCCAGCGACUGCCGAGCGAGAUUACGCUUGAGCGCCCCACUGAGGAUGCCCACGGGCGAUUGGGUCACGG [A5G G65U]	8.17
CCCGACGACUGCCGAGCGAGAUUACGCUUGAGCGUCCCACUGAGGAUGCCCACGGGCGAUUGGGGCACGG [A4G C35U]	7.87
CCCAACGACUUCCGAGCGAGAUUACGCUCGAGCGCCCCACUGAGGAUGCCCACGGGCGAUUGGGGCACGG [G11U U29C]	8.17
CCCAACGACUGCCGAGGGAGAUUACGCUUGAGCGCCCCACUGAGGAUGCCCACGGGCGAUUGGGUCACGG [C17G G65U]	8.14
CCCAACGACUGCCGAGCGAGAUGAGGCUUGAGCGCCCCACUGAGGAUGCCCACGGGCGAUUGGGGCACGG [U23G C25G]	8.23
CCCAACGACAGCGGAGCGAGAUUACGCUUGAGCGCCCCACUGAGGAUGCCCACGGGCGAUUGGGGCACGG [U10A C13G]	8.23
CCCAACGACUGUCGAGCGAGAGUACGCUUGAGCGCCCCACUGAGGAUGCCCACGGGCGAUUGGGGCACGG [C12U U22G]	8.22
CCCAACGGCUGCCGAGCUAGAUUACGCUUGAGCGCCCCACUGAGGAUGCCCACGGGCGAUUGGGGCACGG [A8G G18U]	8.14
CCCAGCGACUGCCUAGCGAGAUUACGCUUGAGCGCCCCACUGAGGAUGCCCACGGGCGAUUGGGGCACGG [A5G G14U]	8.20
CCCAACGACUGCCGAGUGGGAUUACGCUUGAGCGCCCCACUGAGGAUGCCCACGGGCGAUUGGGGCACGG [C17U A19G]	8.14
CCCAACGACUGCCGAGCGAGAUUACGCUUGAGCGCCCCACUGAGGAUGCCCACGCGCGAUUGGGGCACGG [G55C]	8.15
CCCAACGACUGCCGAGCGAGAGUAUGCUUGAGCGCCCCACUGAGGAUGCCCACGGGCGAUUGGGGCACGG [U22G C25U]	8.20
